Origin of measurements: paper PMC4608253

test: in vivo; format: in vivo, A/J mice; details: mice, oral XCHT extract 0.5 g/kg
Quantity measured: detected in the blood

stdin: Name the recorded detected in the blood for CC(C)=CCC[C@](C)(O[C@@H]1O[C@H](CO)[C@@H](O)[C@H](O)[C@H]1O)[C@H]1CC[C@]2(C)[C@@H]1[C@H](O)C[C@@H]1[C@@]3(C)CC[C@H](O)C(C)(C)[C@@H]3[C@@H](O[C@@H]3O[C@H](CO)[C@@H](O)[C@H](O)[C@H]3O[C@@H]3O[C@@H](C)[C@H](O)[C@@H](O)[C@H]3O)C[C@]12C [Re, ginsenoside Re] .
stdout: detected

stdin: Could you share which detected in the blood value was measured for O=C1C[C@@H](c2ccc(O[C@@H]3O[C@H](CO)[C@@H](O)[C@H](O)[C@H]3O)cc2)Oc2cc(O)ccc21 ?
stdout: detected
